The measurements presented in this section are drawn from ChEMBL document CHEMBL1201862.

# Tested on: MCF7
# experimentNotes: NCI tumour cell line growth inhibition, 48 h
Calls of active or inactive are those of the source. Cut-off read from the data, not from the text of the source: active = GI50 up to about 1.1 µM and inactive = higher.
measurementType: GI50

Query: Fill in the blank: the reported GI50 of `Cc1nn(-c2ccccc2)c2nc3ccc(Cl)cc3c(-c3ccccc3)c12` is ____.
Reply: > 100 µM (inactive)

Query: What about C=C(CCC(C(=O)O)C1CCC2(C)C3=C(CCC12C)C1(C)CCC(O)C(C)(C)C1CC3)C(C)C (stereo not drawn) ?
Reply: 60.7 µM (inactive)

---
Query: Reported GI50, compound CC(C)(C)C(=O)OCC1C(=O)OCC1C(=O)N1Cc2cc3ccccc3nc2C1 (stereo not drawn) : ____
Reply: 3.47 µM (inactive)
